These measurements were taken from patent US20180303810A1.

half-life for assorted compounds
Assay: Release rate into plasma (conversion into Nimodipine)
Format: in vitro ADME
Details: rat, rat anticoagulated plasma, 37° C., HPLC, read-out: half-life for converting compound into Nimodipine in blood (converted)

Before answering, review these 3 worked examples.
>  <Compound>
COCCOC(=O)C1=C(C)N(C(=O)OCOC(=O)/C=C/C(=O)O)C(C)=C(C(=O)OC(C)C)C1c1cccc([N+](=O)[O-])c1 (stereo not shown)

>  <half-life>
~1.5 h

$$$$
>  <Compound>
COCCOC(=O)C1=C(C)N(COP(=O)(O)O)C(C)=C(C(=O)OC(C)C)C1c1cccc([N+](=O)[O-])c1 (stereo not shown)

>  <half-life>
< 0.5 h

$$$$
>  <Compound>
COCCOC(=O)C1=C(C)N(C(=O)OCOC(=O)[C@@H](N)CCCCN)C(C)=C(C(=O)OC(C)C)C1c1cccc([N+](=O)[O-])c1 (stereo partly shown)

>  <half-life>
~2.5 h

$$$$

# ---- query compound ----
Please look up its half-life: COCCOC(=O)C1=C(C)N(C(=O)OCOP(=O)(O)O)C(C)=C(C(=O)OC(C)C)C1c1cccc([N+](=O)[O-])c1 (stereo not shown)
~1.5 h

====

Test: Release rate into plasma (conversion into Nimodipine)
Type: in vitro ADME
Settings: rat, rat anticoagulated plasma, 37° C., HPLC, read-out: release rate into plasma t1/2
Measured parameter: half-life

Before answering, review these 2 worked examples.
>  <Molecule>
COCCOC(=O)C1=C(C)N(C(=O)OCOC(=O)[C@@H](N)CCCCN)C(C)=C(C(=O)OC(C)C)C1c1cccc([N+](=O)[O-])c1 (stereo partly drawn)

>  <half-life>
~150 min

$$$$
>  <Molecule>
COCCOC(=O)C1=C(C)N(C(=O)OCOC(=O)[C@@H](N)CC(C)C)C(C)=C(C(=O)OC(C)C)C1c1cccc([N+](=O)[O-])c1.Cl (stereo partly drawn)

>  <half-life>
< 30 min

$$$$

# ---- query molecule ----
Please look up its half-life: COCCOC(=O)C1=C(C)N(C(=O)OCOC(=O)CCN)C(C)=C(C(=O)OC(C)C)C1c1cccc([N+](=O)[O-])c1.Cl (stereo not drawn)
< 30 min

====

Experiment: Release rate into plasma (conversion into Nimodipine)
Format: in vitro ADME
Settings: rat, rat anticoagulated plasma, 37° C., HPLC, read-out: release rate into plasma t1/2
Measured parameter: half-life

Before answering, review these 5 worked examples.
>  <Molecule>
COCCOC(=O)C1=C(C)N(C(=O)OCOC(=O)/C=C/C(=O)[O-])C(C)=C(C(=O)OC(C)C)C1c1cccc([N+](=O)[O-])c1.[Na+] (stereo not shown) [Compound 39]

>  <half-life>
< 60 min

$$$$
>  <Molecule>
COCCOC(=O)C1=C(C)N(C(=O)OC(C)OC(=O)CCCN)C(C)=C(C(=O)OC(C)C)C1c1cccc([N+](=O)[O-])c1.Cl (stereo not shown) [Compound 28]

>  <half-life>
< 30 min

$$$$
>  <Molecule>
COCCOC(=O)C1=C(C)N(C(=O)OCOC(=O)CC[C@H](N)C(N)=O)C(C)=C(C(=O)OC(C)C)C1c1cccc([N+](=O)[O-])c1.Cl (stereo partly shown) [Compound 41]

>  <half-life>
< 30 min

$$$$
>  <Molecule>
COCCOC(=O)C1=C(C)N(C(=O)OCOP(=O)(O)O)C(C)=C(C(=O)OC(C)C)C1c1cccc([N+](=O)[O-])c1 (stereo not shown) [Compound 8]

>  <half-life>
< 90 min

$$$$
>  <Molecule>
CNCC(=O)OCOC(=O)N1C(C)=C(C(=O)OCCOC)C(c2cccc([N+](=O)[O-])c2)C(C(=O)OC(C)C)=C1C.Cl (stereo not shown) [Compound 16]

>  <half-life>
< 30 min

$$$$

Please look up its half-life: COCCOC(=O)C1=C(C)N(C(=O)OC(C)OC(=O)/C=C/C(=O)[O-])C(C)=C(C(=O)OC(C)C)C1c1cccc([N+](=O)[O-])c1.[K+] (stereo not shown) [Compound 24]
< 60 min

Please look up its half-life: COCCOC(=O)C1=C(C)N(C(=O)OCOC(=O)/C=C/C(=O)O)C(C)=C(C(=O)OC(C)C)C1c1cccc([N+](=O)[O-])c1 (stereo not shown) [Compound 6]
~90 min

====

Assay: Solubility in water
Type: physicochemical
Settings: pure water, thermodynamic from solid, read-out: solubility
solubility for assorted compounds

>  <Compound>
COCCOC(=O)C1=C(C)N(C(=O)OCOC(=O)[C@H](C)N)C(C)=C(C(=O)OC(C)C)C1c1cccc([N+](=O)[O-])c1.Cl (stereo partly drawn) [Compound 18]

>  <solubility>
> 50 mg/mL

$$$$

Please look up its solubility: COCCOC(=O)C1=C(C)N(C(=O)OCOC(=O)CCCN)C(C)=C(C(=O)OC(C)C)C1c1cccc([N+](=O)[O-])c1.Cl (stereo not drawn) [Compound 30]
> 50 mg/mL

Please look up its solubility: COCCOC(=O)C1=C(C)N(C(=O)OCOC(=O)C2CCNCC2)C(C)=C(C(=O)OC(C)C)C1c1cccc([N+](=O)[O-])c1.Cl (stereo not drawn) [Compound 32]
> 50 mg/mL

Please look up its solubility: COCCOC(=O)C1=C(C)NC(C)=C(C(=O)OC(C)C)C1c1cccc([N+](=O)[O-])c1 (stereo not drawn) [Nimodipine]
0.003 mg/mL

Please look up its solubility: CNCC(=O)OCOC(=O)N1C(C)=C(C(=O)OCCOC)C(c2cccc([N+](=O)[O-])c2)C(C(=O)OC(C)C)=C1C.Cl (stereo not drawn) [Compound 16]
> 50 mg/mL

Please look up its solubility: COCCOC(=O)C1=C(C)N(C(=O)OC(C)OC(=O)/C=C/C(=O)[O-])C(C)=C(C(=O)OC(C)C)C1c1cccc([N+](=O)[O-])c1.[K+] (stereo not drawn) [Compound 24]
> 50 mg/mL

====

solubility for assorted molecules
Experiment: Solubility in water
Assay type: physicochemical
Settings: pure water, thermodynamic from solid, read-out: solubility

>  <Molecule>
COCCOC(=O)C1=C(C)N(C(=O)OCOC(=O)/C=C/C(=O)[O-])C(C)=C(C(=O)OC(C)C)C1c1cccc([N+](=O)[O-])c1.[Na+] (stereo not drawn)

>  <solubility>
> 50 mg/mL

$$$$
>  <Molecule>
COCCOC(=O)C1=C(C)N(C(=O)OCOC(=O)[C@@H](N)CC(C)C)C(C)=C(C(=O)OC(C)C)C1c1cccc([N+](=O)[O-])c1.Cl (stereo partly drawn)

>  <solubility>
> 50 mg/mL

$$$$
>  <Molecule>
COCCOC(=O)C1=C(C)N(C(=O)OCOC(=O)CC[C@H](N)C(N)=O)C(C)=C(C(=O)OC(C)C)C1c1cccc([N+](=O)[O-])c1.Cl (stereo partly drawn)

>  <solubility>
> 50 mg/mL

$$$$
>  <Molecule>
COCCOC(=O)C1=C(C)N(C(=O)OCOC(=O)/C=C/C(=O)O)C(C)=C(C(=O)OC(C)C)C1c1cccc([N+](=O)[O-])c1 (stereo not drawn)

>  <solubility>
> 50 mg/mL

$$$$
>  <Molecule>
COCCOC(=O)C1=C(C)N(COP(=O)(O)O)C(C)=C(C(=O)OC(C)C)C1c1cccc([N+](=O)[O-])c1 (stereo not drawn)

>  <solubility>
> 50 mg/mL

$$$$

# ---- query molecule ----
Please look up its solubility: COCCOC(=O)C1=C(C)N(C(=O)OC(C)OC(=O)CCCN)C(C)=C(C(=O)OC(C)C)C1c1cccc([N+](=O)[O-])c1.Cl (stereo not drawn)
> 50 mg/mL

====

Assay: Solubility in water
Assay type: physicochemical
Conditions: pure water, thermodynamic from solid, water at room temperature, read-out: solubility in water
Measured parameter: solubility (mg/mL)

Before answering, review these 2 worked examples.
>  <Compound>
COCCOC(=O)C1=C(C)N(C(=O)OCOC(=O)/C=C/C(=O)O)C(C)=C(C(=O)OC(C)C)C1c1cccc([N+](=O)[O-])c1 (stereo not shown) [Compound 6]

>  <Numeric readout>
120

$$$$
>  <Compound>
COCCOC(=O)C1=C(C)N(C(=O)OCOP(=O)(O)O)C(C)=C(C(=O)OC(C)C)C1c1cccc([N+](=O)[O-])c1 (stereo not shown) [Compound 8]

>  <Numeric readout>
105

$$$$

(I) COCCOC(=O)C1=C(C)N(COP(=O)(O)O)C(C)=C(C(=O)OC(C)C)C1c1cccc([N+](=O)[O-])c1 (stereo not shown) [Compound 12]
(II) COCCOC(=O)C1=C(C)N(C(=O)OCOC(=O)[C@@H](N)CCCCN)C(C)=C(C(=O)OC(C)C)C1c1cccc([N+](=O)[O-])c1 (stereo partly shown) [Compound 9]
# return whichever of I and II has the smaller solubility Respond with the label that goes with your answer.
I
(I: 80 mg/mL, II: 230 mg/mL)
